Test system: Enterococcus faecalis 769
procedure text: agar diffusion test (Test System II, multi-resistant germs)
Assay type: cell-based
Parameters: key: r = resistant (no detectable zone of inhibition)
measurement context: Quantity n 0.019
Procedure: The test substances are deposited in stepped quantities (10 μg, 50 μg, 100 μg) onto active ingredient carriers (sensi-discs). For this purpose, the test substances are dissolved in methanol or A. dest. according to their solubility. Each inoculated plate is fitted with 3 test sheets. Test System II (Effect Against Multi-Resistant Germs) For this purpose, bacteria is cultivated on Müller-Hinton-Agar II plates. […]
observation type: Diameter of zone of inhibition

As a guide, the following entries are already answered.
> print(dat)
                                   molecule  value.observed
1  COC(=O)C1=C(NC(C(=O)NC2C(=O)N3C(C(=O)O)=C(C)CSC23)c2ccc(O)cc2)C(=O)C=CC1=O (centres unmarked) [1c]               r
2  N[C@@H](C(=O)N[C@@H]1C(=O)N2C(C(=O)O)=C(Cl)CS[C@H]12)c1ccccc1 [2c, Cefaclor, reference compound]             r^2
3  CC1=C(C(=O)O)N2C(=O)[C@@H](NC(=O)[C@H](N)c3ccc(O)cc3)[C@H]2SC1 [2a, Cefadroxil, reference compound]               r
4  CCOC(=O)C1=C(NC(C(=O)NC2C(=O)N3C(C(=O)O)=C(Cl)CSC23)c2ccccc2)C(=O)C=CC1=O (centres unmarked) [1l]               r

// below: Diameter of zone of inhibition requested for another molecule
Looking for the measured Diameter of zone of inhibition of CCOC(=O)C1=C(NC(C(=O)NC2C(=O)C3CC(Cl)=C(C(=O)O)NC32)c2ccccc2)C(=O)C=CC1=O (centres unmarked) [1p] , can you help?
r
